B1: tRNA (parent)
chain: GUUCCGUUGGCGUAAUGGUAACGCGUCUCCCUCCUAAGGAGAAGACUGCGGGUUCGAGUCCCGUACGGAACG

variants of: B1; test: yeast fitness relative to wild type (ratio to wild type); higher = fitter; tRNA-Arg(CCU), competitive growth, 37 C, YPD
Fewer inactive variants are shown than the library holds.
In this section, each of the variants is paired with its reported yeast fitness.
Field format: numeric only.

The value of yeast fitness measured for the variant U2G C27U C46U G68C turned out to be 0.763

The value of yeast fitness measured for the variant C11A U64A turned out to be 0.635

The value of yeast fitness measured for the variant G23A C46A turned out to be 0.882

The value of yeast fitness measured for the variant A14G A15C A69C A70G turned out to be 0.618
